Reference source for all entries: PubChem BioAssay AID720504

Biological target: Serine/threonine-protein kinase PLK1 (Homo sapiens)
Experiment: qHTS for Inhibitors of PLK1-PDB (polo-like kinase 1 - polo-box domain): Primary Screen; also: nearly all actives have a fitted effect of over 65% in size; also: potency is read from the fitted curve at half-maximal effect
Settings: Plk1 PBD binding of FITC phosphopeptide, fluorescence polarization
Among all 360,000 compounds or so, about 10,000 (2.8%) were called active. About 4% were inconclusive and are not listed. Many of the other results were omitted from the sample, so actives are more common in it than they were.
metric name: Potency

Here is how some molecules turned out for Potency.
>  <molecule>
CCOC(=O)c1cc2n(c1N)-c1ccccc1C2=O

>  <target under test>
Serine/threonine-protein kinase PLK1 (Homo sapiens)

>  <result>
2.67 µM (active)

$$$$
>  <molecule>
Cc1cnc(NC(=O)CSc2nnc(-c3ccc(Cl)cc3Cl)n2N)s1

>  <target under test>
Serine/threonine-protein kinase PLK1 (Homo sapiens)

>  <result>
23.8 µM (active)

$$$$
>  <molecule>
CCOc1ccc(N(CC(=O)OC)S(=O)(=O)c2c(C)noc2C)cc1

>  <target under test>
Serine/threonine-protein kinase PLK1 (Homo sapiens)

>  <result>
26.7 µM (active)

$$$$
>  <molecule>
Cc1cc(C(=O)COC(=O)c2cccs2)c(C)n1-c1c(C)n(C)n(-c2ccccc2)c1=O

>  <target under test>
Serine/threonine-protein kinase PLK1 (Homo sapiens)

>  <result>
29.9 µM (active)

$$$$
>  <molecule>
CC(C)(C)c1ccc(C(=O)CSc2ncn[nH]2)cc1

>  <target under test>
Serine/threonine-protein kinase PLK1 (Homo sapiens)

>  <result>
20 µM (active)

$$$$
>  <molecule>
CC(=O)Nc1ccc(CN2CCN(Cc3ccc(F)c(F)c3)C(CCO)C2)cc1 (configuration not stated)

>  <target under test>
Serine/threonine-protein kinase PLK1 (Homo sapiens)

>  <result>
18.9 µM (active)

$$$$

Consider the molecule shown here: O=C(NC1CC1)C(Cc1ccccc1)NS(=O)(=O)c1ccccc1F (configuration not stated) What is its recorded Potency?
23.8 µM (active)

Consider the molecule shown here: c1ccc(COc2nsnc2N2CCOCC2)cc1 What is its recorded Potency?
26.7 µM (active)

Consider the molecule shown here: CCOc1cc(C(=S)N2CCOCC2)ccc1O What is its recorded Potency?
7.52 µM (active)

Consider the molecule shown here: c1ccc(-n2nc3ccccc3n2)cc1 What is its recorded Potency?
29.9 µM (active)

Consider the molecule shown here: O=C(CSc1cccc2cccnc12)N/N=C/c1cccnc1 What is its recorded Potency?
7.52 µM (active)

---

Target: Serine/threonine-protein kinase PLK1 (Homo sapiens) (UniProt P53350)
Sequence (P53350 whole entry, looked up, the tested form may be a part): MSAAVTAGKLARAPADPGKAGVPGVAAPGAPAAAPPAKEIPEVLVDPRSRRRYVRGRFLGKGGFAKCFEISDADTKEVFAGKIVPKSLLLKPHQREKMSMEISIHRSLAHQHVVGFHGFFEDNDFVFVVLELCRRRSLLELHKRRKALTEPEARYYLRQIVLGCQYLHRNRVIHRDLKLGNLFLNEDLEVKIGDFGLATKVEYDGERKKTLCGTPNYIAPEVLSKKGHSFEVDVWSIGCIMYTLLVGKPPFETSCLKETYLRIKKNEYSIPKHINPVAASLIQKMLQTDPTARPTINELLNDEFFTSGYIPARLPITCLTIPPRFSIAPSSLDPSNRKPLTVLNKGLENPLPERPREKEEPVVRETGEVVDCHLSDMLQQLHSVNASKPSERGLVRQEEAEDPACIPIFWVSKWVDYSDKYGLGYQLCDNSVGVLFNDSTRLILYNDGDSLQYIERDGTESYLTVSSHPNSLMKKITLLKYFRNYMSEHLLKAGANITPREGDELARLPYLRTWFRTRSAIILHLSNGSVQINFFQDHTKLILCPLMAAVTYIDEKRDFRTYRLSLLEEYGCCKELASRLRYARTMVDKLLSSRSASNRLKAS
Assay: qHTS for Inhibitors of PLK1-PDB (polo-like kinase 1 - polo-box domain): Primary Screen; also: nearly all actives have a fitted effect of over 65% in size; as to max response, negative = inhibition: series mostly up to about 57 µM; % is scaled to controls: 0 for no effect and ±100 for the full control effect
Settings: Plk1 PBD binding of FITC phosphopeptide, fluorescence polarization
Out of some 360,000 compounds screened, about 10,000 (2.8%) were called active. Not shown: some 4% with an inconclusive outcome. What follows is part of a selection rich in actives, with near analogues and random picks from the rest.
metric name: max response, negative = inhibition (%)
Your answer should be a plain number; it is taken to be in %.

Here is how some compounds turned out for max response, negative = inhibition.
>  <compound>
Nc1nnn(CC(=O)N/N=C/c2ccc(O)cc2)n1

>  <target under test>
Serine/threonine-protein kinase PLK1 (Homo sapiens) (UniProt P53350)

>  <units label>
%

>  <max response, negative = inhibition>
-3.01

$$$$
>  <compound>
CCn1c(CSc2ncccn2)nnc1SCC(=O)N1c2ccccc2CC1C (stereo unspecified)

>  <target under test>
Serine/threonine-protein kinase PLK1 (Homo sapiens) (UniProt P53350)

>  <units label>
%

>  <max response, negative = inhibition>
-13

$$$$
>  <compound>
N#CC1=C(N)Oc2n[nH]c(CSc3ccccc3)c2C12C(=O)Nc1ccccc12 (stereo unspecified)

>  <target under test>
Serine/threonine-protein kinase PLK1 (Homo sapiens) (UniProt P53350)

>  <units label>
%

>  <max response, negative = inhibition>
-12.8

$$$$
>  <compound>
CC1(C)Cc2ccccc2-c2[nH]c(=S)[nH]c(=O)c21

>  <target under test>
Serine/threonine-protein kinase PLK1 (Homo sapiens) (UniProt P53350)

>  <units label>
%

>  <max response, negative = inhibition>
-13.9

$$$$
>  <compound>
O=S(=O)(Nc1ccc2nc(N3CCOCC3)sc2c1)c1ccccc1

>  <target under test>
Serine/threonine-protein kinase PLK1 (Homo sapiens) (UniProt P53350)

>  <units label>
%

>  <max response, negative = inhibition>
-10.1

$$$$

Consider the compound shown here: COC(=O)CNC(=O)c1ccc(OC2CCN(C(=O)C3CC3)CC2)cc1 What is its recorded max response, negative = inhibition?
-1.29

Consider the compound shown here: COc1cccc(CC(=O)OCC(=O)NCc2ccc3c(c2)OCO3)c1 What is its recorded max response, negative = inhibition?
-5.11

Consider the compound shown here: COc1ccc(NS(=O)(=O)c2ccc(NC(=S)NC(=O)CC(C)C)cc2)cc1 What is its recorded max response, negative = inhibition?
-14.2

Consider the compound shown here: COc1ccc(NS(=O)(=O)c2ccc3oc(SCC(N)=O)nc3c2)cc1 What is its recorded max response, negative = inhibition?
-0.392

Consider the compound shown here: CC(=O)Nc1cnc(-c2ccc(O)cc2C)cn1 What is its recorded max response, negative = inhibition?
-2.97

Consider the compound shown here: Cc1nonc1C(=O)N/N=C/c1ccc(O)cc1 What is its recorded max response, negative = inhibition?
-1.21
